- systemUnderTest: GST-SBP-SLBP (stem-loop binding protein) (Homo sapiens, UniProt Q14493 1-270)
- experiment: targeted RNA Bind-n-Seq; RBNS binding buffer: 25 mM Tris pH 7.5, 150 mM KCl, 3 mM MgCl2, 0.1% Tween, 0.5 mg/mL BSA, 1 mM DTT; 27 nM protein, 750 pM RNA pool; temperature not stated; high values mean tight binding
- assaySetup: protein: recombinant; tags: N-terminal GST and SBP (pGEX6P1-SBP)
measuredMetric: binding signal
Don't forget the unit after the value.

Query: Quick check: binding signal of consensus (structured_RNA) RNA: GGUCACGUCUCAAUCAACUCCCAAAGGCCUUUUUCAGGGCCACCCAUCAACAGCUCGCAGUCAAG ?
Response: 2.4 log2 fold change

Query: Quick check: binding signal of consensus (structured_RNA) RNA: GGUCACGUCUCAAUCAACUCCCAAAGGCCCUUUUUAGGGCCACCCAUCAACAGCUCGCAGUCAAG ?
Response: 3.48 log2 fold change

Query: Quick check: binding signal of consensus (structured_RNA) RNA: GGUCACGUCUCAAUCAACUCCCAAAGGUCUUUUUUAGGACCACCCAUCAACAGCUCGCAGUCAAG ?
Response: 0.994 log2 fold change
